Entries and their L929 ND50
# target.of.assay: T1, mouse TNFR1 on L929 cells (mouse, UniProt P25118 30-454)
# T1 sequence (looked up): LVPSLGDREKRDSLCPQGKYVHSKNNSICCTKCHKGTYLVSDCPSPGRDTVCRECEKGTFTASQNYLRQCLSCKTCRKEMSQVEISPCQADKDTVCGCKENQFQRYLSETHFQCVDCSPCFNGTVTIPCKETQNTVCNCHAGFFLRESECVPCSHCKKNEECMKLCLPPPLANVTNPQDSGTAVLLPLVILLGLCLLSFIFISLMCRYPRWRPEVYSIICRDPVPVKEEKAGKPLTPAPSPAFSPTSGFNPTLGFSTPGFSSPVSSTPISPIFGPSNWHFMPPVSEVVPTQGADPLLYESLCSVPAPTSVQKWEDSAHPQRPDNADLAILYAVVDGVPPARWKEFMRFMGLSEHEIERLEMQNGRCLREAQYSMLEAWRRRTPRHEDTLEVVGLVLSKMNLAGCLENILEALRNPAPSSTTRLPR
# assay.explanation: cell-based or functional assay
Hi! Could you send only the number? It should be in nM, unit omitted.

| binder | L929 ND50 (nM) |
| --- | --- |
| DMS0132 (bispecific antibody, anti-TNFR1 dAb / AlbudAb in-line fusion) EVQLLESGGGLVQPGGSLRLSCAASGFTFVKYSMGWVRQAPGKGLEWVSQISDTADRTYYAHSVKGRFTISRDNSKNTLYLQMNSLRAEDTAVYYCAIYTGRWVPFEYWGQGTLVTVSSASTDIQMTQSPSSLSASVGDRVTITCRASRPIGTTLSWYQQKPGKAPKLLILWNSRLQSGVPSRFSGSGSGTDFTLTISSLQPEDFATYYCAQAGTHPTTFGQGTKVEIKR | 6.8 |
| DMS0135 (bispecific antibody, anti-TNFR1 dAb / AlbudAb in-line fusion) EVQLLESGGGLVQPGGSLRLSCAASGFTFFKYSMGWVRQAPGKGLEWVSQISDTADRTYYSHSVKGRFTISRDNSKNTLYLQMNSLRAEDTAVYYCAIYTGRWVPFEYWGQGTLVTVSSASTDIQMTQSPSSLSASVGDRVTITCRASRPIGTTLSWYQQKPGKAPKLLILWNSRLQSGVPSRFSGSGSGTDFTLTISSLQPEDFATYYCAQAGTHPTTFGQGTKVEIKR | 5.9 |
| DMS0133 (bispecific antibody, anti-TNFR1 dAb / AlbudAb in-line fusion) EVQLLESGGGLVQPGGSLRLSCAASGFTFFKYSMGWVRQAPGKGLEWVSQISDTADRTYYAHSVKGRFTISRDNSKNTLYLQMNSLRAEDTAVYYCAIYTGRWAPFEYWGQGTLVTVSSASTDIQMTQSPSSLSASVGDRVTITCRASRPIGTTLSWYQQKPGKAPKLLILWNSRLQSGVPSRFSGSGSGTDFTLTISSLQPEDFATYYCAQAGTHPTTFGQGTKVEIKR | 4.2 |

Here is the next item to consider.
Looking for the measured L929 ND50 of DMS0134 (bispecific antibody, anti-TNFR1 dAb / AlbudAb in-line fusion) EVQLLESGGGLVQPGGSLRLSCAASGFTFFKYSMGWVRQAPGKGLEWVSQISDTADRTYYAHSVKGRFTISRDNSKNTLYLQMNSLRAEDTAVYYCAIYTGRWVPFEYWGQGTLVTVSSASTDIQMTQSPSSLSASVGDRVTITCRASRPIGTTLSWYQQKPGKAPKLLILWNSRLQSGVPSRFSGSGSGTDFTLTISSLQPEDFATYYCAQAGTHPTTFGQGTKVEIKR , can you help? 5.8
